- Tested on: NCI-H1299
- protocolDescription: Anticancer activity against human H1299 cells assessed as inhibition of cell proliferation measured after 72 hrs by MTT assay
- Assay type: functional, cell-based
- reportedConditions: NCI-H1299, 72 h
measuredQuantity: IC50 (µM)
Form entry: value (µM) — number only.

compound: C[C@]12CCC=C[C@@H]1CC[C@@H]1[C@@H]2CC[C@]2(C)/C(=N/O)CC[C@@H]12
experimentalResult: 18.6
//
compound: COc1cc([C@@H]2c3cc4c(cc3[C@@H](O[C@@H]3O[C@@H]5CO[C@@H](C)O[C@H]5[C@H](O)[C@H]3O)[C@H]3COC(=O)[C@H]23)OCO4)cc(OC)c1O [ETOPOSIDE]
experimentalResult: 230
//
compound: C[C@]12CCCC=C1CC[C@@H]1[C@@H]2CC[C@]2(C)C(=O)CC[C@@H]12
experimentalResult: 21.5

Please indicate IC50 recorded for `C[C@]12CCCC=C1CC[C@@H]1[C@@H]2CC[C@]2(C)/C(=N/O)CC[C@@H]12`
19.2

---

- Tested on: PC-3
- protocolDescription: Anticancer activity against human PC-3 cells assessed as inhibition of cell proliferation measured after 72 hrs by MTT assay
- Assay type: functional, cell-based
- reportedConditions: PC-3, 72 h
measuredQuantity: IC50

smilesRepr: C[C@]12CCCC=C1CC[C@@H]1[C@@H]2CC[C@]2(C)C(=O)CC[C@@H]12
targetEntity: PC-3
IC50: 21.5 µM
//
smilesRepr: C[C@]12CCCC=C1CC[C@@H]1[C@@H]2CC[C@]2(C)/C(=N/O)CC[C@@H]12
targetEntity: PC-3
IC50: 14.5 µM

Turning now to a further record.
Please indicate IC50 recorded for `C[C@]12CC[C@H]3O[C@H]3[C@@H]1CC[C@@H]1[C@@H]2CC[C@]2(C)C(=O)CC[C@@H]12`
46.8 µM
